The measurements presented in this section are drawn from paper PMC9170038.

# system-under-test: MS2 coat protein, dlFG mutant (Escherichia phage MS2, UniProt P03612, del68-81insG)
# experimental-details: 4 mM Mg2+; no ligand; RNA-MaP array; 100 mM Tris-HCl pH 7.5, 80 mM KCl, 4 mM MgCl2, 0.1 mg/mL BSA, 1 mM DTT, 0.01 mg/mL yeast tRNA, 0.01% Tween-20; protein 1.5 nM to 3 uM; 37 C (Table S3)
# condition-set: chain copies: 2; label: tethered by stalled RNA polymerase
pKd: −log10 of the molar value.
experimental-endpoint: pKd

binder | pKd
Eterna 7714851 (Same State - Theophylline B) (ssRNA) RNA: AGAACUGUCUGAGAUACCAGCCAGGAAGUGAUGUUUCCAGCUCCACGAAAGUGGAGCCAUGGCCCUUGGCAGCUCAGACAGUUCA | < 5.52
Eterna 7699730 (Exclusion - Theophylline A) (ssRNA) RNA: AGAAACUUGUAUGUCGGCCCUGCGCGCGAUACCAGCCAAAUGGAUGGCCCUUGGCAGCGCAGCGAGUGAUGUUCGCCCGGCUGAC | < 5.52

Can you share its pKd? I mean this binder: Eterna 6102128 (Same State NG 3) (ssRNA) RNA: AAAACAUGAGGAUCACCCAUGUAAAUAUCGGUUAAUUGUUGUGAGGAUAUACUAAAUUUUAAGAAGUAGAAGGCACUGGGUACA 7.61
